experiment: HepG2 liver cancer cell viability effects, profiling panel, resazurin fluorescence, 24 h, PK04 Diversity Set (AID 1172); conditions: higher = more signal; also: test concentration not given here
recorded_metric: z-score

1) CO[C@H]1COC(=O)[C@@H](C)COC(=O)[C@H](COCc2ccccc2)NC(=O)CC=C[C@H]1C: -0.238
2) COc1ccc(COC(=O)NN=C2C[C@@H](O)[C@@H](O)[C@@H]3[C@@H]4C(=O)N(c5cccc(Oc6ccccc6)c5)C(=O)[C@@H]4CC[C@@H]23)cc1: 0.702
3) CC1O[C@H]2C3=C(C(=O)[C@@H]4O[C@@H]4[C@H]3O)[C@@H]1C1[C@@H](C)OC=C3[C@H](O)C4O[C@@H]4C(=NOCc4ccccc4)[C@]312 (stereo not given in full): -1.04
4) CC(CCN1CCCc2nc(C)c(C)cc21)=NOC(C)CN1CCCCc2nc(C)c(C)cc21 (stereo not given): -0.0007
5) CON=C[C@@H](C)[C@H](OCc1ccccc1)C(C)C: -0.304
6) CCCCC#C[C@@H]1C=C[C@H](Oc2ccc(C(=O)OC)cc2)[C@@H](COC(=O)OCC)O1: 0.257
7) CO[C@H]1COC(=O)[C@H](C)NC(=O)[C@@H](C)COC(=O)[C@H]2CCCN2C(=O)CC=C[C@H]1C: -0.384
8) C[C@@H](c1ccccc1)N1C(=O)[C@H]2[C@H]3[C@H](O)[C@H](O)CC(=O)[C@H]3CC[C@H]2C1=O: -0.137
9) CCOC(=O)NN=C1C[C@@H](O)[C@@H](O)[C@@H]2[C@@H]3C(=O)N([C@@H](C)c4ccccc4)C(=O)[C@@H]3CC[C@H]12: 0.384
10) COC(=O)[C@@H]1CC[C@H](C)[C@@H](c2ccc(C)cc2)N1C(=O)c1ccc(C=NO[C@H](C)c2cn([C@H](CO)Cc3ccccc3)nn2)cc1: -1.32
11) COC(=O)[C@@H]1CC[C@@H](C)[C@H](c2ccc(Br)cc2)N1: 0.0869
12) COC(=O)[C@H](C)NC(=O)CCC1CC(OC(=O)NCc2ccc3c(c2)OCO3)CC2(CCCC(COC(=O)NCC3CCCCC3)O2)O1 (stereo not given in full): 0.635
13) Cc1cc2c(nc1C)CCCCN2CC(C)ON=C1[C@H]2CCn3c(=O)n(-c4ccccc4)c(=O)n3[C@H]2[C@H](O)[C@@H]2O[C@H]12 (stereo not given in full): -1.22
14) CO[C@H]1COC(=O)CC=C[C@@H](C)[C@H](OC)COC(=O)CCC[C@@H]1C: 0.855
15) COc1ccc(O[C@H]2C=C[C@@H](c3ccccc3)O[C@@H]2CON=CC[C@@H]2C=C[C@H](OC(C)=O)[C@@H](COC(C)=O)O2)cc1: 0.185

----------
Reported values of composite z-score for individual entries
test system: Inhibin beta A chain (activin A); test: INHBA (activin A) binders on microarrays, primary screen, biochemical, small-molecule microarray, 635 nm fluorescence scan (AID 1107); details: small-molecule microarray binding, higher = more signal;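 also: mouse activin A protein probed at 4.33 µg/mL on printed slides; score merges bound-protein fluorescence near 667 nm with spot signal-to-noise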
recorded_metric: composite z-score

1) CC(C)CON=C1C[C@@H](O)[C@@H](O)[C@@H]2[C@@H]3C(=O)N(c4ccc(F)cc4F)C(=O)[C@@H]3CC[C@H]12: -0.253
2) CC1O[C@H]2C3=C(C(=O)[C@@H]4O[C@@H]4[C@H]3O)[C@@H]1C1[C@@H](C)OC=C3[C@H](O)C4O[C@@H]4C(=NOCc4ccccc4)[C@]312 (some centres not stated): 0.121
3) CO[C@@H]1COC(=O)[C@@H](C)NC(=O)CC=C[C@@H](C)[C@H](NS(=O)(=O)c2ccc(C)cc2)COC(=O)[C@H](C)NC(=O)CC=C[C@H]1C: 1.4
4) C[C@@H]1NC(=O)[C@@H](C)COC(=O)[C@H](C)NC(=O)[C@@H](C)COC1=O: -0.772
5) CC(C)=CCCC(C)=CCON=C1C[C@@H](O)[C@@H](O)[C@@H]2[C@@H]3C(=O)N(Cc4ccccc4)C(=O)[C@@H]3CC[C@H]12: 1.11
6) O=C1C[C@@H](O)[C@@H](O)[C@@H]2[C@@H]3C(=O)N(Cc4ccccc4)C(=O)[C@@H]3CC[C@@H]12: 0.11
7) CO[C@H]1COC(=O)[C@@H](C)COC(=O)[C@H](C)NC(=O)CC=C[C@H]1C: 1.13

Data origin, for the record: PubChem BioAssay
